Tested on: upland rice (Oryza sp., var. Tebonnet, RICE)
protocol_summary: Post-emerge test, crop safety
Assay type: in vivo
test_conditions: 63 g ai/ha; post-emerge; 14 days after application; rating scale 0-100
We label by threshold. Values of Post-emerge Herbicidal Activity RICE (crop damage rating) strictly beneath 10 are MET. Values of 10 and up are NOT MET.

Past entries and their recorded results:
[[record]]
molecule = "COc1c(Cl)cc(F)c(-n2c(=O)cc(C(F)(F)F)n(C)c2=O)c1NN=Cc1ccc(F)cc1F [15-20]"
label = "NOT MET"

[[record]]
molecule = "COc1c(Cl)cc(F)c(-n2c(=O)cc(C(F)(F)F)n(C)c2=O)c1NN=CCc1ccccc1 [15-15]"
label = "NOT MET"

[[record]]
molecule = "COCC(C)=NNc1c(OC)c(Cl)cc(F)c1-n1c(=O)cc(C(F)(F)F)n(C)c1=O [15-13]"
label = "NOT MET"

[[record]]
molecule = "COc1c(Cl)cc(F)c(-n2c(=O)cc(C(F)(F)F)n(C)c2=O)c1NN=Cc1ccc2ccccc2c1 [15-22]"
label = "NOT MET"

[[record]]
molecule = "CCCOC(=O)C(Cl)Cc1c(OCC)c(Cl)cc(F)c1-n1c(=O)cc(C(F)(F)F)n(C)c1=O (stereo not drawn) [14-66]"
label = "MET"

[[record]]
molecule = "CCCOC(=O)C(Cl)Cc1c(OCC)c(Cl)cc(F)c1-n1c(=O)cc(C(F)(F)F)n(C)c1=O (stereo not drawn) [14-65]"
label = "MET"

[[record]]
molecule = "CCOC(=O)NNc1c(OC)c(Cl)cc(F)c1-n1c(=O)cc(C(F)(F)F)n(C)c1=O [15-6]"
label = "NOT MET"

[[record]]
molecule = "COc1c(Cl)cc(F)c(-n2c(=O)cc(C(F)(F)F)n(C)c2=O)c1SCCO [17-5]"
label = "MET"

[[record]]
molecule = "CCOC(=O)N(C)C(=O)NNc1c(OC)c(Cl)cc(F)c1-n1c(=O)cc(C(F)(F)F)n(C)c1=O [15-9]"
label = "NOT MET"

[[record]]
molecule = "COc1c(Cl)cc(F)c(-n2c(=O)cc(C(F)(F)F)n(C)c2=O)c1SC(C)C [17-2]"
label = "MET"


Request: Find out if reported Post-emerge Herbicidal Activity RICE (crop damage rating) for Cn1c(C(F)(F)F)cc(=O)n(-c2c(Cl)cc(Cl)cc2OC(=O)c2ccc(F)cc2F)c1=O [16-4] is less than 10
Result: MET

====

Tested on: upland rice (Oryza sp., var. Tebonnet, RICE)
protocol_summary: Post-emerge test, crop safety
Assay type: in vivo
test_conditions: 250 g ai/ha; phytotoxicity rating 0-100 (0 no damage, 100 complete death), 14 days after application
Everything with Post-emerge Herbicidal Activity RICE (crop damage) lower than 40 is NO; everything else, including exactly 40, is YES.

Past entries and their recorded results:
[[record]]
molecular_string = "Cn1c(C(F)(F)F)cc(=O)n(-c2c(F)cc(Cl)c(OCC#N)c2NC(=O)C(F)(F)F)c1=O"
label = "NO"

[[record]]
molecular_string = "CCOC(=O)CC(=O)Nc1c(OC(=O)CC(=O)OCC)c(Cl)cc(F)c1-n1c(=O)cc(C(F)(F)F)n(C)c1=O"
label = "YES"

[[record]]
molecular_string = "C=Cc1ccc(C(=O)Nc2c(OC)c(Cl)cc(F)c2-n2c(=O)cc(C(F)(F)F)n(C)c2=O)cc1"
label = "YES"

[[record]]
molecular_string = "COc1c(Cl)cc(F)c(-n2c(=O)cc(C(F)(F)F)n(C)c2=O)c1N=C(Cl)C(Cl)(Cl)Cl"
label = "NO"

[[record]]
molecular_string = "COc1c(Cl)cc(F)c(-n2c(=O)cc(C(F)(F)F)n(C)c2=O)c1NC(=O)c1ccc(C(C)(C)C)cc1"
label = "NO"


Request: Could you please find out whether Cn1c(C(F)(F)F)cc(=O)n(-c2c(N)cc(OC(F)F)cc2F)c1=O has Post-emerge Herbicidal Activity RICE (crop damage) that meets 40 or exceeds it?
Result: NO

Request: Would you mind doing COc1c(Cl)cc(F)c(-n2c(=O)cc(C(F)(F)F)n(C)c2=O)c1NC(C)=O as well?
Result: YES

Request: Would you mind doing COc1c(Cl)cc(F)c(-n2c(=O)cc(C(F)(F)F)n(C)c2=O)c1N(C(=O)C=C(C)C)C(=O)C=C(C)C as well?
Result: NO

====

Measured Pre-emerge Herbicidal Activity ECHCG of individual entries
System: barnyardgrass (Echinochloa crus-galli, ECHCG)
protocol_summary: Pre-emerge test, greenhouse herbicide activity screening
Format: in vivo
test_conditions: 63 g ai/ha; phytotoxicity rating 0-100, 14 days after application
Response field accepts a number only; no unit should be typed.

Here's what some known entries look like.
[[record]]
compound = "CCOC(=O)C(C)Oc1c(Cl)cc(F)c(-n2c(=O)cc(C(F)(F)F)n(C)c2=O)c1NC(=O)c1ccc2ccccc2c1 (stereo not shown) [2-191]"
readout_value = 0

[[record]]
compound = "CCCCCC(=O)Nc1c(OC)c(Cl)cc(F)c1-n1c(=O)cc(C(F)(F)F)n(C)c1=O [2-198]"
readout_value = 50

[[record]]
compound = "Cc1ccc(OC(=O)Nc2c(C)c(Cl)cc(F)c2-n2c(=O)cc(C(F)(F)F)n(C)c2=O)cc1C [4-53]"
readout_value = 10


// below: Pre-emerge Herbicidal Activity ECHCG requested for another compound
Request: Quick one: Pre-emerge Herbicidal Activity ECHCG of COc1c(Cl)cc(F)c(-n2c(=O)cc(C(F)(F)F)n(C)c2=O)c1NC(=O)NCc1ccccc1 [Compound 3-6] ?
Result: 40

====

System: large crabgrass (Digitaria sanguinalis, DIGSA)
protocol_summary: Pre-emerge test, greenhouse herbicide activity screening
Assay type: in vivo
test_conditions: 250 g ai/ha; pre-emerge; rated 14 days after application; 0 = no damage, 100 = complete death
Everything with Pre-emerge Herbicidal Activity DIGSA (phytotoxicity rating, scale 0-100) lower than 70 is no; everything else, including exactly 70, is yes.

[[record]]
compound = "C=Cc1ccc(C(=O)Nc2c(OC)c(Cl)cc(F)c2-n2c(=O)cc(C(F)(F)F)n(C)c2=O)cc1 [2-31]"
label = "yes"

[[record]]
compound = "Cn1c(C(F)(F)F)cc(=O)n(-c2c(F)cc(Cl)c(OCC#N)c2NC(=O)C(F)(F)F)c1=O [2-11]"
label = "no"

[[record]]
compound = "COc1c(Cl)cc(F)c(-n2c(=O)cc(C(F)(F)F)n(C)c2=O)c1NC(C)=O [2-1]"
label = "yes"

[[record]]
compound = "C=C(C)C(=O)N(C(=O)C(=C)C)c1c(OC)c(Cl)cc(F)c1-n1c(=O)cc(C(F)(F)F)n(C)c1=O [2-6]"
label = "no"

[[record]]
compound = "C=C(C)C(=O)Nc1c(OC)c(Cl)cc(F)c1-n1c(=O)cc(C(F)(F)F)n(C)c1=O [2-5]"
label = "yes"

[[record]]
compound = "COc1c(Cl)cc(F)c(-n2c(=O)cc(C(F)(F)F)n(C)c2=O)c1N [Compound 1-4]"
label = "yes"

[[record]]
compound = "CC(C)Oc1c(Cl)cc(F)c(-n2c(=O)cc(C(F)(F)F)n(C)c2=O)c1N [Compound 1-63]"
label = "yes"

[[record]]
compound = "COc1c(Cl)cc(F)c(-n2c(=O)cc(C(F)(F)F)n(C)c2=O)c1N=CN(C)C [Compound 1-31]"
label = "yes"


Request: Could you please find out whether COc1c(Cl)cc(F)c(-n2c(=O)cc(C(F)(F)F)n(C)c2=O)c1NS(=O)(=O)c1ccc(C)cc1 [2-26] has Pre-emerge Herbicidal Activity DIGSA (phytotoxicity rating, scale 0-100) that meets 70 or exceeds it?
Result: no

Request: Would you mind doing COc1c(Cl)cc(F)c(-n2c(=O)c(NC(=O)C(F)(F)F)c(C(F)(F)F)n(C)c2=O)c1NC(=O)C(F)(F)F [2-12] as well?
Result: no

Request: Would you mind doing CCOc1c(Cl)cc(F)c(-n2c(=O)cc(C(F)(F)F)n(C)c2=O)c1N [Compound 1-61] as well?
Result: yes

====

Test system: upland rice (Oryza sp., var. Tebonnet, RICE)
protocol_summary: Pre-emerge test, crop safety
Assay type: in vivo
test_conditions: crop damage, pre-emerge, rate 63 g ai/ha, phytotoxicity rating 0-100 at 14 days after application
Everything with Pre-emerge Herbicidal Activity RICE lower than 10 is not fulfilled; everything else, including exactly 10, is fulfilled.

Past entries and their recorded results:
[[record]]
molecular_string = "COc1ccc(COC(=O)Nc2c(C)c(Cl)cc(F)c2-n2c(=O)cc(C(F)(F)F)n(C)c2=O)cc1OC"
label = "fulfilled"

[[record]]
molecular_string = "Cc1c(Cl)cc(F)c(-n2c(=O)cc(C(F)(F)F)n(C)c2=O)c1NC(=O)OCc1cccc([N+](=O)[O-])c1"
label = "fulfilled"

[[record]]
molecular_string = "COc1ccccc1COC(=O)Nc1c(C)c(Cl)cc(F)c1-n1c(=O)cc(C(F)(F)F)n(C)c1=O"
label = "fulfilled"


Request: Could you please find out whether COc1c(Cl)cc(F)c(-n2c(=O)n3n(c2=O)CCCC3)c1N has Pre-emerge Herbicidal Activity RICE that meets 10 or exceeds it?
Result: not fulfilled
